# Tested System: T1, SsoSSB (single-stranded DNA-binding protein) (Sulfolobus solfataricus, UniProt Q97W73 1-148)
# T1 sequence: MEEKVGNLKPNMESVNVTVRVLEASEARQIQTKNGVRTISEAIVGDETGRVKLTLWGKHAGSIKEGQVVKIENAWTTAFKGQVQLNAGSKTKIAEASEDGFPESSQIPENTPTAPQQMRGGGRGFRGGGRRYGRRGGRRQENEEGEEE
# Assay Notes: fluorescence (PIFE); 10 nM DNA, 10 mM KCl; Hill 1.6 +/- 0.5; ITC: 20 mM MES pH 6.5, 100 mM K-glutamate, 1 mM MgCl2, 50 C; PIFE: 50 mM Tris-HCl pH 8.0, 10 mM KCl; smFRET: same buffer plus Trolox and oxygen scavenger, room
# Cond: protein: recombinant, label: 5' biotin, 3' Cy3
pKd: −log10 of the molar value.
Property Name: pKd

Binder	Experimental Value
CCCCCCCCCCCC (ssDNA) [C12ssDNA]	8.09
